TARGET UNDER TEST: USP7 (Homo sapiens)
Construct: USP7, construct USP7 (208-1102) 6*His, Viva Biotech; 6xHis (C); purchased Viva Biotech
Sequence (Q93009 208-1102): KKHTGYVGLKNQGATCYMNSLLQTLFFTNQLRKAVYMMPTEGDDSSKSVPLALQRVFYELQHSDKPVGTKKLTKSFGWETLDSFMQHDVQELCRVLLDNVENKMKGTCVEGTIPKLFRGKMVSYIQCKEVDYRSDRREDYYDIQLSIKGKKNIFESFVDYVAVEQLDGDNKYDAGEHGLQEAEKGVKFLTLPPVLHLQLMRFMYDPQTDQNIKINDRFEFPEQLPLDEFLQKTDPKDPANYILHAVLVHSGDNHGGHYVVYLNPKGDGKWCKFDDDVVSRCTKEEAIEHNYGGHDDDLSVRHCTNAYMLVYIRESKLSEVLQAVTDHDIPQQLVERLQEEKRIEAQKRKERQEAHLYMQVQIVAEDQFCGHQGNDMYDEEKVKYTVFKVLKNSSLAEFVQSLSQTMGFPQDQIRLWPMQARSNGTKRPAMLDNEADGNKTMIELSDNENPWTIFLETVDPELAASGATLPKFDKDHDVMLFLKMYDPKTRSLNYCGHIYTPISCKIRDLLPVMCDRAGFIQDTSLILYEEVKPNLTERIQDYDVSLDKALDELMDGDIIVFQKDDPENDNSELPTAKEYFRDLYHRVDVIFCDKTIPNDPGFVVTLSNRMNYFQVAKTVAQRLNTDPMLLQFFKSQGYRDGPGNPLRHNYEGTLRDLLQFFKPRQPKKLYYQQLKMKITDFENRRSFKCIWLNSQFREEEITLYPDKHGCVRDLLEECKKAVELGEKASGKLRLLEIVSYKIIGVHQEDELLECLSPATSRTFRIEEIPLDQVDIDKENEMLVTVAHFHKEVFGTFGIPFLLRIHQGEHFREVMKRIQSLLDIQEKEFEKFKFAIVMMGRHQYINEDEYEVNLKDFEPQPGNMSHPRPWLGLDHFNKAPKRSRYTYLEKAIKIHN
PROTOCOL NOTES: USP7 Assay A (Ubitquin-Rhodamine 110 Assay)
Assay type: biochemical
EXPERIMENTAL CONDITIONS: USP7 assay A and B (table does not say which assay per compound); read-out: USP7_IC50
Item-by-item account of IC50

IC50 for `Cc1cc(C)c(-n2ncc3c(=O)n(CC4(O)CCN(C(=O)C5CC5)CC4)cnc32)c(C)c1` is > 10000 nM

IC50 for `O=C(N1CCC(O)(Cn2cnc3c(cnn3-c3ccccc3)c2=O)CC1)C12CC(C(F)(F)F)(C1)C2` is 1000 to 10000 nM
